Target: Plasma kallikrein (Homo sapiens)
Sequence (P03952 20-390 limits assumed): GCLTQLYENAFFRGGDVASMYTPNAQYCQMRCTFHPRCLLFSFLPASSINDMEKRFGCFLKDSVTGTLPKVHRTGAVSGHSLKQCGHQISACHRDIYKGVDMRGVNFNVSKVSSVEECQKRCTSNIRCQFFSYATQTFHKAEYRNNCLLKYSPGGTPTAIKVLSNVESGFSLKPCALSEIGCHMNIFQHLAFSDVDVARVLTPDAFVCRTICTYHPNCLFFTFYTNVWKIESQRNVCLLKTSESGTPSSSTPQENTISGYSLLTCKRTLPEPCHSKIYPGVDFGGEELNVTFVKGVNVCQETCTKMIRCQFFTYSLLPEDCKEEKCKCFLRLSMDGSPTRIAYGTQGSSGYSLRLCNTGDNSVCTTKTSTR
Sequence (P03952 391-638 limits assumed): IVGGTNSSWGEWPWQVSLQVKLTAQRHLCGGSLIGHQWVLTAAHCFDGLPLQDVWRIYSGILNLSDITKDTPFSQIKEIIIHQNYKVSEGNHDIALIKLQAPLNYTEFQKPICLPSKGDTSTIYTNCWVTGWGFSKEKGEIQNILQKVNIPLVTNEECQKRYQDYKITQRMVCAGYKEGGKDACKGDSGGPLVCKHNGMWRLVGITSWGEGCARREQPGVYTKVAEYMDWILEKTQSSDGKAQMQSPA
Assay: Measurements were performed in a kinetic interval every 2nd minute for 16 min using a Spectramax M5 (Molecular Devices) with the following settings of the wavelength excitation of 350 nm and wavelength emission of 450 nm.
measurement-kind: Ki (nM)

a. Cc1nc(N2CC3(CC3)C2)ccc1Cn1cc(C(=O)N[C@@H]2CCc3c(C)n[nH]c32)cn1
b. Cc1nc(N2CC3C(C2)C3(F)F)ccc1Cn1cc(C(=O)N[C@@H]2CCc3c(C)n[nH]c32)c(C)n1 (some centres not stated)
[in] // compare measured Ki between a and b ; output the lower one Respond with the label that goes with your answer.
[out] b
(b: 0.1 nM, a: 0.4 nM)

Hey, just so you know, these numbers are from ChEMBL document CHEMBL5727776.
